Ref: paper PMC6221991

biological target: human PPARα (hPPARα) (Homo sapiens); assay: PPARα GAL-4 transactivation assay in HEK293T cells; conditions: read-out: EC50 PPARα GAL-4
Sequence (Q07869 239-466 limits assumed): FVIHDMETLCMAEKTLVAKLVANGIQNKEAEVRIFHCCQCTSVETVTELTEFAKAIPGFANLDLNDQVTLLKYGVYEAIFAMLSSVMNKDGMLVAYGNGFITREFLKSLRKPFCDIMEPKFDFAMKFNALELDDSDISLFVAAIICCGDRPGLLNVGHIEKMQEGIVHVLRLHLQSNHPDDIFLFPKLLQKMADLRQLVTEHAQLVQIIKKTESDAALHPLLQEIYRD
Measurement kind: pEC50
# pEC50 is unitless: minus log10 of the molar concentration; print number only

Entry Cc1c(C)n(Cc2ccc(-c3ccccc3C(=O)O)cc2)c2ccc(C(=O)N[C@@H](C)c3ccc([N+](=O)[O-])cc3)cc12 [SR1664, reference compound] ; assay system human PPARα (hPPARα) (Homo sapiens); pEC50 recorded at 5.07

* * *

Biological target: PPARγ Gal-4 (Homo sapiens)
Sequence (P37231 238-503 limits assumed): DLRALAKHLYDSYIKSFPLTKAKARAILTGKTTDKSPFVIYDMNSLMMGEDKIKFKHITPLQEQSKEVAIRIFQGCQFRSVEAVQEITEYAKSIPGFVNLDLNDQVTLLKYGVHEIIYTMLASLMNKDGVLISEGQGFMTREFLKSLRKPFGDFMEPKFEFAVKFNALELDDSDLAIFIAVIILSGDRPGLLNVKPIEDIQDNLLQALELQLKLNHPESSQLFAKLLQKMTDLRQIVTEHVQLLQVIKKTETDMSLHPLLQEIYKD
Assay: Gal4-PPARγ-LBD cell-based transactivation assay in HEK293T cells
Settings: EC50 PPARγ Gal-4, HEK293T
Measurement kind: pEC50
# pEC50 is unitless: minus log10 of the molar concentration; print number only

Entry `Cc1c(C)n(Cc2ccc(C(C)(C)C(=O)O)cc2)c2ccc(C(=O)N[C@@H](C)c3cccc(C4CC4)c3)cc12` , pEC50 reported as 5.56
